# assayProtocol: clinical
# assayContext: human, in vivo, po, 750 mg, Sputum AUC(0-inf)
outcomeMeasure: AUC(0-inf) (µg·h/mL)
Give the number; µg·h/mL is assumed, so skip it.

Qu. Tell me the measured AUC(0-inf) of C[C@H]1COc2c(N3CCN(C)CC3)c(F)cc3c(=O)c(C(=O)O)cn1c23 , please.
Ans. 93.4

====

Listing: F, % from Lung vs IV of selected compounds
# assayProtocol: in vivo
# assayContext: male, Sprague-Dawley, rat, in vivo, 10 mg/kg
Give the number; % is assumed, so skip it.

Qu. Tell me the measured F, % from Lung vs IV of CCn1cc(C(=O)O)c(=O)c2cc(F)c(N3CCNCC3)cc21 , please.
Ans. 100

More entries:
Qu. Tell me the measured F, % from Lung vs IV of C[C@H]1COc2c(N3CCN(C)CC3)c(F)cc3c(=O)c(C(=O)O)cn1c23 , please.
Ans. 97

Qu. And what about the compound CO/N=C1\CN(c2nc3c(cc2F)c(=O)c(C(=O)O)cn3C2CC2)CC1CN (stereo not shown) ?
Ans. 86

Qu. And what about the compound COc1c(N2CCNC(C)C2)c(F)cc2c(=O)c(C(=O)O)cn(C3CC3)c12 (stereo not shown) ?
Ans. 100

====

# assayProtocol: in vivo
# assayContext: Sprague-Dawley, rat, inhaled or intranasal, 10 mg/kg
outcomeMeasure: half-life
Record the result as a number with its unit.

Qu. Tell me the measured half-life of C[C@H]1COc2c(N3CCN(C)CC3)c(F)cc3c(=O)c(C(=O)O)cn1c23 [Levofloxacin, levofloxacin] , please.
Ans. 30 min

====

# assayProtocol: clinical
# assayContext: human, in vivo, po, 750 mg, Sputum Cmax
outcomeMeasure: Cmax (ng/mL)
Give the number; ng/mL is assumed, so skip it.

Qu. Tell me the measured Cmax of C[C@H]1COc2c(N3CCN(C)CC3)c(F)cc3c(=O)c(C(=O)O)cn1c23 , please.
Ans. 8700

====

# assayProtocol: clinical
# assayContext: human, in vivo, iv, 50 mg, Sputum Cmax
outcomeMeasure: Cmax

Qu. Tell me the measured Cmax of C[C@H]1COc2c(N3CCN(C)CC3)c(F)cc3c(=O)c(C(=O)O)cn1c23 , please.
Ans. 1050 ng/mL

====

# assayProtocol: in vivo
# assayContext: male, Sprague-Dawley, rat, in vivo, iv, 10 mg/kg
Listing: half-life of selected molecules
Give the number; h is assumed, so skip it.

Sample answers from the record:
Qu. Tell me the measured half-life of CO/N=C1\CN(c2nc3c(cc2F)c(=O)c(C(=O)O)cn3C2CC2)CC1CN (stereo not shown) , please.
Ans. 1.04

Qu. And what about the molecule CCn1cc(C(=O)O)c(=O)c2cc(F)c(N3CCNCC3)cc21 ?
Ans. 1.21

Qu. And what about the molecule COc1c(N2CCNC(C)C2)c(F)cc2c(=O)c(C(=O)O)cn(C3CC3)c12 (stereo not shown) ?
Ans. 1.06

Lab note: next molecule to report on.
Qu. Tell me the measured half-life of C[C@H]1COc2c(N3CCN(C)CC3)c(F)cc3c(=O)c(C(=O)O)cn1c23 , please.
Ans. 0.5

====

# assayProtocol: in vivo
# assayContext: Sprague-Dawley, rat, inhaled or intranasal, 10 mg/kg
outcomeMeasure: MRT (min)
Give the number; min is assumed, so skip it.

Qu. Tell me the measured MRT of C[C@H]1COc2c(N3CCN(C)CC3)c(F)cc3c(=O)c(C(=O)O)cn1c23 , please.
Ans. 42.6

====

# assayProtocol: in vivo
# assayContext: male, Sprague-Dawley, rat, in vivo, iv, 10 mg/kg
Listing: AUC of selected molecules
Give the number; ng·h/mL is assumed, so skip it.

Qu. Tell me the measured AUC of CO/N=C1\CN(c2nc3c(cc2F)c(=O)c(C(=O)O)cn3C2CC2)CC1CN (stereo not shown) [Gemifloxacin, gemifloxacin] , please.
Ans. 900

More entries:
Qu. Tell me the measured AUC of C[C@H]1COc2c(N3CCN(C)CC3)c(F)cc3c(=O)c(C(=O)O)cn1c23 [Levofloxacin, levofloxacin] , please.
Ans. 1600

Qu. And what about the molecule COc1c(N2CCNC(C)C2)c(F)cc2c(=O)c(C(=O)O)cn(C3CC3)c12 (stereo not shown) [Gatifloxacin, gatifloxacin] ?
Ans. 350

Qu. And what about the molecule CCn1cc(C(=O)O)c(=O)c2cc(F)c(N3CCNCC3)cc21 [Norfloxacin, norfloxacin] ?
Ans. 800

====

# assayProtocol: clinical
# assayContext: human, in vivo, 40 mg
outcomeMeasure: Cmax (µg/mL)
Give the number; µg/mL is assumed, so skip it.

Qu. Tell me the measured Cmax of C[C@H]1COc2c(N3CCN(C)CC3)c(F)cc3c(=O)c(C(=O)O)cn1c23 , please.
Ans. 212

====

# assayProtocol: clinical
# assayContext: human, in vivo, iv, 50 mg
outcomeMeasure: Cmax

Qu. Tell me the measured Cmax of C[C@H]1COc2c(N3CCN(C)CC3)c(F)cc3c(=O)c(C(=O)O)cn1c23 , please.
Ans. 800 ng/mL

====

# assayProtocol: clinical
# assayContext: human, in vivo, iv, 50 mg, Serum t1/2, IV 50 mg
outcomeMeasure: half-life

Qu. Tell me the measured half-life of C[C@H]1COc2c(N3CCN(C)CC3)c(F)cc3c(=O)c(C(=O)O)cn1c23 , please.
Ans. 5.89 h

====

# assayProtocol: in vivo
# assayContext: Sprague-Dawley, rat, inhaled or intranasal, 10 mg/kg
outcomeMeasure: Cmax

Qu. Tell me the measured Cmax of C[C@H]1COc2c(N3CCN(C)CC3)c(F)cc3c(=O)c(C(=O)O)cn1c23 , please.
Ans. 6010 ng/mL

====

# assayProtocol: clinical
# assayContext: human, in vivo, iv
outcomeMeasure: clearance (mL/min)
Give the number; mL/min is assumed, so skip it.

Qu. Tell me the measured clearance of C[C@H]1COc2c(N3CCN(C)CC3)c(F)cc3c(=O)c(C(=O)O)cn1c23 [Levofloxacin, levofloxacin] , please.
Ans. 266

====

# assayProtocol: clinical
# assayContext: human, in vivo, iv, 50 mg, Serum Cmax
outcomeMeasure: Cmax (µg/mL)
Give the number; µg/mL is assumed, so skip it.

Qu. Tell me the measured Cmax of C[C@H]1COc2c(N3CCN(C)CC3)c(F)cc3c(=O)c(C(=O)O)cn1c23 , please.
Ans. 2.55

====

Listing: half-life of selected compounds
# assayProtocol: in vivo
# assayContext: male, Sprague-Dawley, rat, in vivo, inhaled or intranasal, 10 mg/kg
# Protocol: This example relates to aerosol and intravenous administration of fluoroquinolones in saline. A rat pharmacokinetic model was used to compare intravenous and pulmonary administration of fluoroquinolones. […] Approximately 0.3 ml blood samples were taken from 2-6 rats at each timepoint via an indwelling jugular vein cannula, and collected in lithium heparin tubes. […] Sample concentrations were determined against a standard curve.
Give the number; h is assumed, so skip it.

Qu. Tell me the measured half-life of CO/N=C1\CN(c2nc3c(cc2F)c(=O)c(C(=O)O)cn3C2CC2)CC1CN (stereo not shown) [Gemifloxacin, gemifloxacin] , please.
Ans. 1.68

Qu. And what about the compound C[C@H]1COc2c(N3CCN(C)CC3)c(F)cc3c(=O)c(C(=O)O)cn1c23 [Levofloxacin, levofloxacin] ?
Ans. 0.5

Qu. And what about the compound COc1c(N2CCNC(C)C2)c(F)cc2c(=O)c(C(=O)O)cn(C3CC3)c12 (stereo not shown) [Gatifloxacin, gatifloxacin] ?
Ans. 1.13

Qu. And what about the compound CCn1cc(C(=O)O)c(=O)c2cc(F)c(N3CCNCC3)cc21 [Norfloxacin, norfloxacin] ?
Ans. 1.13

====

# assayProtocol: clinical
# assayContext: human, in vivo, 40 mg
outcomeMeasure: AUC

Qu. Tell me the measured AUC of C[C@H]1COc2c(N3CCN(C)CC3)c(F)cc3c(=O)c(C(=O)O)cn1c23 , please.
Ans. 171 µg·h/mL

====

# assayProtocol: clinical
# assayContext: human, in vivo, iv, 50 mg, Sputum AUC(0-inf)
outcomeMeasure: AUC(0-inf) (ng·h/mL)
Give the number; ng·h/mL is assumed, so skip it.

Qu. Tell me the measured AUC(0-inf) of C[C@H]1COc2c(N3CCN(C)CC3)c(F)cc3c(=O)c(C(=O)O)cn1c23 , please.
Ans. 5700

====

# assayProtocol: clinical
# assayContext: human, in vivo, po, 750 mg, Serum AUC(0-inf)
outcomeMeasure: AUC(0-inf) (ng·h/mL)
Give the number; ng·h/mL is assumed, so skip it.

Qu. Tell me the measured AUC(0-inf) of C[C@H]1COc2c(N3CCN(C)CC3)c(F)cc3c(=O)c(C(=O)O)cn1c23 , please.
Ans. 76600

This collection of values is drawn from patent US10722519B2.
